The values you see were collected from patent US20200017592A1.

Please go through the items and note down their 100 nM hIL-36R-Trap-mFc Bound (RU).
Target: T1, in-line fusion protein of human IL-36R extracellular domain and IL1RAcP extracellular domain expressed with … (human; mouse, UniProt Q9HB29 20-337; Q9NPH3 21-359, limits assumed)
T1 construct: not shown: mouse IgG2a Fc
T1 sequence (looked up): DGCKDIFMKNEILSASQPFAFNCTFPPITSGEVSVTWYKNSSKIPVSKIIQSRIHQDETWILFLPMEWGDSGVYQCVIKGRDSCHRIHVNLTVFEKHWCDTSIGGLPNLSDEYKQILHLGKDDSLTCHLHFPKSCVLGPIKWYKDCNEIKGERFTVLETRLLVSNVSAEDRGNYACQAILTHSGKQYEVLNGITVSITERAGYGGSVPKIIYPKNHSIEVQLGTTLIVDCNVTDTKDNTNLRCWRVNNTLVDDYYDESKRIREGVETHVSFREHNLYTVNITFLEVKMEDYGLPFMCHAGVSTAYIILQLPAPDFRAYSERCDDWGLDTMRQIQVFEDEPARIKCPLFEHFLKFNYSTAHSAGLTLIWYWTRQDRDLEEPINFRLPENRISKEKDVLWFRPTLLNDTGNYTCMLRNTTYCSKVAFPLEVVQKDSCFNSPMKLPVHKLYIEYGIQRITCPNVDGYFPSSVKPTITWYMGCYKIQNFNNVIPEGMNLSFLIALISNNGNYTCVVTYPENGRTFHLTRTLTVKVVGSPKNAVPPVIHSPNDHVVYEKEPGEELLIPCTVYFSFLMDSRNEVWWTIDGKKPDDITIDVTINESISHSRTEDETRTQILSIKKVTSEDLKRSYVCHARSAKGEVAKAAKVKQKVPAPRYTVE
Test: SPR Biacore 4000, mAb captured on anti-hFc, 37C
Answers are plain numbers, in RU.

Known results for binders:
binder="H4H14706P2 (antibody, human IgG4 S228P, kappa, V domains shown, Fully human anti-IL-36R antibody) VH: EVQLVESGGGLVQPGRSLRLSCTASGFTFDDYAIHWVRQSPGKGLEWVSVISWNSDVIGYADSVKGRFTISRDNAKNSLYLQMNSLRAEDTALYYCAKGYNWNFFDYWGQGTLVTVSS VL: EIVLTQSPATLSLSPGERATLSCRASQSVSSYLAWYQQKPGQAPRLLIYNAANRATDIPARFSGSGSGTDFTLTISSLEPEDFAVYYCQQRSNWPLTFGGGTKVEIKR" numeric_result=264
binder="H4H14708P2 (antibody, human IgG4 S228P, kappa, V domains shown, Fully human anti-IL-36R antibody) VH: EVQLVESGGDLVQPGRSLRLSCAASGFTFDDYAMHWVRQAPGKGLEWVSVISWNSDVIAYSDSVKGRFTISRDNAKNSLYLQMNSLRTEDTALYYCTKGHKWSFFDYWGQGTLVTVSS VL: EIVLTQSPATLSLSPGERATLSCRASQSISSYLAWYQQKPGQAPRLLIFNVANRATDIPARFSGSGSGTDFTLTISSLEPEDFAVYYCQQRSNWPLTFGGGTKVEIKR" numeric_result=239

Shift focus to the following entry.
Prompt line: Return value of 100 nM hIL-36R-Trap-mFc Bound (RU) for input H4H14700P2 (antibody, human IgG4 S228P, kappa, V domains shown, Fully human anti-IL-36R antibody) VH: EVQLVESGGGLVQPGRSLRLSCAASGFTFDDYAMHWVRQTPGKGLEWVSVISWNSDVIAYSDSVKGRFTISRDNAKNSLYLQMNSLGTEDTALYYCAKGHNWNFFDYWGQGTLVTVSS VL: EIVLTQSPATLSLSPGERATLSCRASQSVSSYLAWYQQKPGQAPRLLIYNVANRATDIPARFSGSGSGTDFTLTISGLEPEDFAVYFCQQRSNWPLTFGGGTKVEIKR , no commentary.
Response line: 216
